Tested on: SW 480
Experiment: Growth inhibition test (MTT), cytotoxic action on tumour cell lines
Format: cell-based, human
Settings: SW480; MTT after day 6; read-out: IC50 values of the cytotoxic action on tumour cell lines, SW480
pIC50: −log10 of the molar value. *1 amine or outer side, *2 acyl side, *3 side chain or, on linkers, in order; H or OH if unused. Where a SMILES comes first, the peptide text is derived from it. [ ]: non-standard residue; d: D form. The star is where a group is joined. Camptothecin(20R,20-O) = CC[C@]1(O*)C(=O)OCc2c1cc1n(c2=O)Cc2cc3ccccc3nc2-1; X2 = CCCNC(=O)Nc1cccc(S(=O)(=O)Nc2cccc(C(CC(=O)O)NC(=O)Nc3ccc(N*)cc3)c2)c1; X1 = CCCNC(=O)Nc1cccc(S(=O)(=O)Nc2cccc(C(CC(=O)O)N*)c2)c1; NH(1,4-C6H4)NHCS = S=C(Nc1ccc(N[*:1])cc1)[*:2]; CO = O=C([*:1])[*:2]; GABA = NCCCC(=O)O
Binary call on pIC50: Fulfilled from 7 upward, Not fulfilled beneath that.

| molecule | qualitative-label |
| --- | --- |
| CCCNC(=O)Nc1cccc(S(=O)(=O)Nc2cccc(C(CC(=O)O)NC(=O)Nc3ccc(NC(=S)N4CCC[C@@H]4C(=O)N[C@@H](CC(C)C)C(=O)NCC(=O)N[C@H](CC(C)C)C(=O)N[C@H](CSC)C(=O)N[C@@H](C(=O)O[C@@]4(CC)C(=O)OCc5c4cc4n(c5=O)Cc5cc6ccccc6nc5-4)C(C)C)cc3)c2)c1 (stereo partly drawn) [Example 14] ({X1-CO}-[NH(1,4-C6H4)NHCS][dP]LG[dL][dC](Me)[dV]-{Camptothecin(20R,20-O)}) | Fulfilled |
| CCCNC(=O)Nc1cccc(S(=O)(=O)Nc2cccc(C(CC(=O)O)NC(=O)Nc3ccc(NC(=S)N4CCC[C@H]4C(=O)N[C@@H](CC(C)C)C(=O)NCC(=O)N[C@@H](CC(C)C)C(=O)N4CCC[C@H]4C(=O)N[C@H](C(=O)O[C@]4(CC)C(=O)OCc5c4cc4n(c5=O)Cc5cc6ccccc6nc5-4)C(C)C)cc3)c2)c1 (stereo partly shown) | Not fulfilled |
| CCCNC(=O)Nc1cccc(S(=O)(=O)Nc2cccc(C(CC(=O)O)NC(=O)Nc3ccc(NC(=S)N4CCC[C@H]4C(=O)N[C@@H](CC(C)C)C(=O)NCC(=O)N[C@@H](CC(C)C)C(=O)N[C@@H](Cc4ccccc4)C(=O)N[C@H](C(=O)O[C@]4(CC)C(=O)OCc5c4cc4n(c5=O)Cc5cc6ccccc6nc5-4)C(C)C)cc3)c2)c1 (stereo partly shown) | Not fulfilled |
| CCCNC(=O)Nc1cccc(S(=O)(=O)Nc2cccc(C(CC(=O)O)NC(=O)Nc3ccc(NC(=O)N4CCC[C@@H]4C(=O)N[C@@H](CC(C)C)C(=O)NCC(=O)N[C@H](CC(C)C)C(=O)N[C@H](Cc4c[nH]c5ccccc45)C(=O)N[C@@H](C(=O)O[C@@]4(CC)C(=O)OCc5c4cc4n(c5=O)Cc5cc6ccccc6nc5-4)C(C)C)cc3)c2)c1 (stereo partly drawn) [Example 15] ({X2-CO}-[dP]LG[dL][dW][dV]-{Camptothecin(20R,20-O)}) | Not fulfilled |
| CCCNC(=O)Nc1cccc(S(=O)(=O)Nc2cccc(C(CC(=O)O)NC(=O)Nc3ccc(NC(=S)NCCCC(=O)N4CCC[C@@H]4C(=O)N[C@@H](CC(C)C)C(=O)NCC(=O)N[C@H](CC(C)C)C(=O)N[C@H](Cc4c[nH]cn4)C(=O)N[C@@H](C(=O)O[C@@]4(CC)C(=O)OCc5c4cc4n(c5=O)Cc5cc6ccccc6nc5-4)C(C)C)cc3)c2)c1 (stereo partly drawn) [Example 16] ({X1-CO}-[NH(1,4-C6H4)NHCS][GABA][dP]LG[dL][dH][dV]-{Camptothecin(20R,20-O)}) | Fulfilled |
| CCCNC(=O)Nc1cccc(S(=O)(=O)Nc2cccc(C(CC(=O)O)NC(=O)Nc3ccc(NC(=O)N4CCC[C@@H]4C(=O)N[C@@H](CC(C)C)C(=O)NCC(=O)N[C@H](CC(C)C)C(=O)N[C@H](CC(N)=O)C(=O)N[C@@H](C(=O)O[C@@]4(CC)C(=O)OCc5c4cc4n(c5=O)Cc5cc6ccccc6nc5-4)C(C)C)cc3)c2)c1 (stereo partly drawn) [Example 12] ({X2-CO}-[dP]LG[dL][dN][dV]-{Camptothecin(20R,20-O)}) | Fulfilled |
| CCCNC(=O)Nc1cccc(S(=O)(=O)Nc2cccc(C(CC(=O)O)NC(=O)Nc3ccc(NC(=O)N4CCC[C@@H]4C(=O)N[C@@H](CC(C)C)C(=O)NCC(=O)N[C@H](CC(C)C)C(=O)N[C@H](Cc4c[nH]cn4)C(=O)N[C@@H](C(=O)O[C@@]4(CC)C(=O)OCc5c4cc4n(c5=O)Cc5cc6ccccc6nc5-4)C(C)C)cc3)c2)c1 (stereo partly drawn) [Example 6] ({X2-CO}-[dP]LG[dL][dH][dV]-{Camptothecin(20R,20-O)}) | Fulfilled |
